Tested on: HCC-2998 colon
method summary: NCI tumour cell line growth inhibition, 48 h
# TGI per record follows

{"columns": ["compound", "measured"],
 "data": [
  ["NC(=O)C1CCCN1C(=O)N(CCCl)N=O (stereo not drawn)", "> 100 µM"]
]}

Form: compound = CSc1ccc2c(cc1=O)[C@@H](NC(=O)c1ccc([N+](=O)[O-])cc1)CCc1cc(O)c(O)c(O)c1-2 ; TGI = > 100 µM

Form: compound = CSc1nc(N)c2c(n1)NC(c1ccccc1)C1CCc3ccccc3C1=N2 (stereo not drawn) ; TGI = > 100 µM

---

Test system: TK-10 renal
method summary: NCI tumour cell line growth inhibition, 48 h
Where a SMILES comes first, the peptide text is derived from it. The star is where a group is joined. Cbz = O=C(OCc1ccccc1)*
reported property: TGI

Some entries whose results are on file:
{"columns": ["compound", "reported property", "measured"],
 "data": [
  ["C[C@@](O)(/C=C/[C@H]1CC=CC(=O)O1)[C@@H](C[C@@H](O)\\C=C/C=C\\C=C\\CO)OP(=O)(O)O", "TGI", "46.6 µM"],
  ["CCCCCSC1C2C(=O)C(Br)=CC13CCNc1c(O)c4c5c(c13)=[N+]2CCC=5C=N4 (centres undefined)", "TGI", "5.34 µM"],
  ["CCOC(=O)CNC(=O)C(C)NC(=O)C(NC(=O)OCc1ccccc1)C(C)C (stereo not drawn) (Cbz-Val-Ala-Gly-OEt; configuration not given here)", "TGI", "> 100 µM"],
  ["Cc1cc2c(cc1C)[n+](Cc1ccc3ccccc3n1)cn2Cc1ccc2ccccc2n1", "TGI", "2.74 µM"],
  ["O=c1c2c3c(sc2nc2n1N=C(c1ccc([N+](=O)[O-])cc1)CS2)CCCC3", "TGI", "> 100 µM"]
]}

Form: compound = Clc1ccc(C2=NOC3C4CCC(C4)C23)cc1 (centres undefined) ; TGI = > 100 µM

Form: compound = CC(=O)N(C(C)=O)n1nc2c(n1)C(=O)c1ccccc1C2=O ; TGI = > 100 µM

Form: compound = Cc1cc(S(N)(=O)=O)c(S/C(=N\Nc2ccc([N+](=O)[O-])cc2)c2ccc3ccccc3c2)cc1Cl ; TGI = 31.7 µM

Form: compound = COc1ccc(C(=O)OC2C(OC3C(O)COC(O[C@H]4C[C@H]5[C@@H]6CC=C7C[C@@H](O)CC[C@]7(C)[C@H]6CC[C@]5(C)[C@H]4[C@H](C)C(=O)CCC(C)C)C3OC(C)=O)OCC(O)C2O)cc1 (some centres undefined) ; TGI = 6.6 µM

Form: compound = CN=C(NC)N(C)c1nc(=[N+](C)C)ss1 ; TGI = > 100 µM

Form: compound = CN(C)Cc1cc(C(=O)/C=C/c2ccc(F)cc2)cc(CN(C)C)c1O ; TGI = > 100 µM

Form: compound = COc1ccc(Oc2cc(NCCC(F)(F)F)c3ncc(-c4ccc(C(=O)NC5CC5)c(C)c4)n3n2)c(F)c1F ; TGI = > 100 µM

Form: compound = Cc1ccc(S(=O)(=O)N2CCCSCCN(S(=O)(=O)c3ccc(C)cc3)CCCSCC2)cc1 ; TGI = > 100 µM

Form: compound = C[N+](C)(C)C(C1=CCCC1=O)c1ccccc1 (centres undefined) ; TGI = > 100 µM
